run_description: Novel Modifiers of Survival Motor Neuron (SMN) Protein: Gene Identification via Genome-wide siRNA Screen;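 further: luminescence tracks full-length SMN protein made from the SMN2 reporter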
test_settings: HEK293T SMN2-luciferase reporter, siRNA knockdown, 72 h; actives lie on both sides
About 1,400 (4.5%) of roughly 31,000 sequences were called active. Shown is part of a subset that was picked to be rich in actives.
We begin with a simple list: items and their reported median seed-adjusted z-score.
property_measured: median seed-adjusted z-score

| item_sequence | measured_value |
| --- | --- |
| GGAGGACAAUCAGCAAGGATT against SPOCK2 | 0.967 |
| GAGCGAGACAUAAAAUAUUTT against ZNF257 | 0.306 |
| GGAUUGCCCAGGGUUCCUATT against DGKQ | -0.0985 |
| AGCUAGGCCUGGAUAUCGATT against KRT83 | 1.15 |
| CAACCUACAUGUUUGCUGATT against SCARF1 | -0.324 |
| GCAGCUCAACGGCAAAGAATT against RBM14 | -0.0317 |
| CCACCCGGACGAUAUCUUUTT against PPARA | 0.113 |
| GGAUAUUGGAUUGCCUAGATT against TCFL5 | 1.52 |
| GAGUUAAGGAGGUAGAUGATT against SNX5 | -0.141 |
| GAUGAGUAUGCAAAAUUUATT against ATR | -0.217 |
| GUAGCUUGCUACUCCAGAATT against POLR2D | -3.79 |
| GGAGAGACUUUUUACAACUTT against CACNG6 | -0.0499 |
| CGACUGGAUUAAGCAGUAUTT against ATP6V1C1 | 0.0821 |
| GCAUGAACCAGUUAUCACATT against SCYL2 | -0.0652 |
| CUCUUUAGCCGCUUCAUUATT against FMNL1 | -0.3 |
| GCCUCAAGGUUCACCUGAATT against PRDM1 | -0.16 |
| UCAGUGCCCUUGUAUCAAATT against CYP4F2 | -0.387 |
| GCCCAAUACUUGCAAGUGATT against KCNA2 | -1.03 |
| GGAUCGGUAUGUAGCAAUATT against HTR2C | -0.115 |
| GGUUACAAGCGGUUUGGUATT against COLEC12 | -1.04 |
| CAUCACCUGUAGAACCUGATT against PIAS2 | -0.096 |
| GCAUUUGAGCAUGAAAAUATT against VPS29 | -0.408 |
| GCAGUACUCUGCUACCUGATT against IL22RA1 | -1.14 |
| CUCAAUCCAUAGUAAGUAUTT against ZNF678 | 0.172 |
| CAGUGACCCGGAUCCUCUATT against RHCG | 0.375 |

* * *

run_description: Novel Modifiers of Survival Motor Neuron (SMN) Protein: Gene Identification via Genome-wide siRNA Screen;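 further: luminescence tracks full-length SMN protein made from the SMN2 reporter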
test_settings: HEK293T SMN2-luciferase reporter, siRNA knockdown, 72 h; actives lie on both sides
Hit rate of the full screen: of about 31,000 sequences, about 1,400 (4.5%) were called active. This excerpt belongs to a sample that is enriched for actives.

| item_sequence | median seed-adjusted z-score |
| --- | --- |
| CAAUAAGGCUCAUGCACAATT against GNAQ | -1.23 |
| CGGGCAUUGCCACCAAAGATT against DUX5 | -0.295 |
| GCAACACCGACGUAAAGAATT against ALOX5 | -0.201 |
| GUUUGCAUGUGACAAUGGATT against PPTC7 | 0.49 |
| GCAAUUAACAAUUAUCGAUTT against RNASE3 | 0.588 |
| GCGUAAUUUGGACCUCUUUTT against ZDHHC21 | 0.216 |

* * *

run_description: Novel Modifiers of Survival Motor Neuron (SMN) Protein: Gene Identification via Genome-wide siRNA Screen;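 further: luminescence tracks full-length SMN protein made from the SMN2 reporter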
test_settings: HEK293T SMN2-luciferase reporter, siRNA knockdown, 72 h; actives lie on both sides
Screen size: about 31,000 sequences; about 1,400 (4.5%) were called active.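 The calls were made as follows: active = median seed-adjusted z-score above 1 or below -1; inactive = the rest.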 The entries come from a sample that favours actives as a whole.
Outcomes: yes for active, no for inactive

| item_sequence | class_label |
| --- | --- |
| CAAACAAUAUGAGAGUGUUTT against IL7 | no |
| CAUCGCCUAUAUGAAAUAUTT against PLA2G10 | yes |
| CCGGAGAAGUUCAACAGCATT against DGKA | yes |
| GAAAAUCUAUCAGAACAUUTT against RAB14 | no |
| CAGUGCUCAUGGAACUCUUTT against HMGCS2 | no |
| GCCGGUAUGUGAAGGAGAATT against CLK3 | yes |
| GAGCGUACCAAGGAUCUAATT against HDLBP | yes |
| GGCCUUUGGUGAAAACCGUTT against CLDN11 | no |
| CGACCAUCAUGGAAAACAUTT against ABCB8 | no |
| CUCUUAUAGUUGAUCGUGATT against ATAD2B | no |
| GCAAGAUCCGAGAAGAAUATT against TUBB | no |
| GCACGAAAAUCCCGACAUATT against DDX54 | no |

* * *

run_description: Novel Modifiers of Survival Motor Neuron (SMN) Protein: Gene Identification via Genome-wide siRNA Screen;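 further: luminescence tracks full-length SMN protein made from the SMN2 reporter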
test_settings: HEK293T SMN2-luciferase reporter, siRNA knockdown, 72 h; actives lie on both sides
Protocol: Spinal muscular atrophy (SMA) is the most common neuromuscular autosomal recessive disorder and one of the leading genetic causes of infant death. […] Briefly, 1 pmol of each siRNA was spotted to a well of a 384-well plate (Corning, Corning, NY) and 20 microL of serum-free DMEM containing […] of Lipofectamine RNAiMax (Life Technologies, Carlsbad, CA) was then added to each well. […] Raw luminescence reads were normalized to Ambion(R) Silencer(R) Negative Control #2 siRNA, then log10 transformed. […]
Hit rate of the full screen: of about 31,000 sequences, about 1,400 (4.5%) were called active.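 The calls were made as follows: active = median seed-adjusted z-score above 1 or below -1; inactive = the rest.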 The full list was thinned out, with actives kept by preference.
Outcomes: active, inactive

| item_sequence | class_label |
| --- | --- |
| GGACAUUGAUUAUAUUGGATT against GALC | inactive |
| CACUAACUGAUUUACAAGATT against UBE2J1 | active |
| GAACAUCCGUGAGCAAGGATT against KCNJ8 | inactive |
| GGGCCUUUCUUGGACUGAUTT against PHF7 | inactive |
| AAAGAAUCAUUGUGAAAGATT against PARVA | inactive |
| GGCAAAAACUGUGAAUUAUTT against F10 | inactive |
| GACAGGUACUUCUAAGUCATT against AHSA1 | inactive |
| CAUCCAAGAUUAUAGUGGATT against PNLIP | inactive |
| GGCGAAUUCCAUACCGUUATT against NEK2 | inactive |
| CAGUGCACAGUGAAACCAATT against ADAM11 | inactive |
| GGGACUCUGUAUUCCCUCUTT against WFDC2 | inactive |
| GGAAGAAAGUAUAAUAGAATT against MAFG | inactive |
| GUGUCAGAGUUUAUAUCAATT against PDE4D | inactive |
| AGAGGAUCCUGAACUCCAATT against MYO19 | inactive |
| GGAUGGUCGGAUUCUGAAATT against ITPKC | inactive |
| CAAAUACAGUGAGGACAUUTT against GPR83 | inactive |
| GGAUCCUGGUGAUAAGAGATT against QRICH1 | active |
| GGUCAUGCAGAUUAUGUUATT against TUFM | active |
| CUAUAGCUGUCUCCCAGAATT against PRICKLE2 | active |
| CCUUAUCGAUAUUAUGAGATT against CPEB2 | inactive |
| GGUUAUGUAGUAACGAGUUTT against ALS2 | inactive |
| CCAGGAGAUCUUUGCCUUUTT against SLC4A3 | inactive |
| GGACAUCCUGUCAUAGAAATT against UTP3 | active |
| CGAUCCUAUUCGAUGAGAATT against GRM5 | inactive |
| AGUGACAGAGUACAAGAUATT against EIF3G | inactive |
| GCUUCUCGGCUGUCCAUGATT against CLCNKB | inactive |

* * *

run_description: Novel Modifiers of Survival Motor Neuron (SMN) Protein: Gene Identification via Genome-wide siRNA Screen;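 further: luminescence tracks full-length SMN protein made from the SMN2 reporter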
test_settings: HEK293T SMN2-luciferase reporter, siRNA knockdown, 72 h; actives lie on both sides
Hit rate of the full screen: of about 31,000 sequences, about 1,400 (4.5%) were called active. Shown is part of a subset that was picked to be rich in actives.

| item_sequence | median seed-adjusted z-score |
| --- | --- |
| GGAUAGUAUGAAUGAUCAATT against SRP54 | 0.203 |
| GGUGAUGAGAGAUCCCAAUTT against PABPC4 | -0.42 |
| CUACCAUUUUCAUCGAGGATT against FREM3 | -0.565 |
| GGUGGGUGGUAAGAGGGAATT against AQP2 | -0.433 |
| GAAAUACCCUAUUACCAAATT against MED26 | -1.86 |
| CCACGUCUCUGGAGAGUUUTT against ALAD | 0.0952 |
